- System: JCK
- experimental.protocol: qHTS profiling for inhibitors of Plasmodium falciparum proliferation (AID 504749); also: nearly all actives have a fitted effect of over 60% in size
- run.parameters: P. falciparum in erythrocytes, SYBR Green DNA, 72 h; series mostly up to 28.7 µM
Results filed as inconclusive are left out. Calls of active or inactive are those of the source. Calls follow the shape of the dose curve; as a rule, active = well fitted inhibition curve with a large enough effect; inconclusive = small, poorly fitted or top-dose-only effect; inactive = flat fitted curve, though single readings scatter.
Outcome (select one): t = active, f = inactive

Prompt: For this compound, state the assay outcome: CC1(Cn2ccnn2)[C@H](C(=O)O)N2C(=O)C[C@H]2S1(=O)=O (some centres undefined)
Completion: f

Prompt: For this compound, state the assay outcome: NCCCCC(N)C(=O)O (centres undefined)
Completion: f

Prompt: For this compound, state the assay outcome: NC(C(=O)O)c1ccc(O)cc1 (centres undefined)
Completion: f

Prompt: For this compound, state the assay outcome: "C/C(=C(/CCOC(=O)C(C)C)SS/C(CCOC(=O)C(C)C)=C(\C)N(C=O)Cc1cnc(C)nc1N)N(C=O)Cc1cnc(C)nc1N"
Completion: f

Prompt: For this compound, state the assay outcome: "CC1(C)C2CC[C@]1(C)[C@@H](O)C2"
Completion: f

Prompt: For this compound, state the assay outcome: CC1CN(c2c(F)c(N)c3c(=O)c(C(=O)O)cn(C4CC4)c3c2F)CC(C)N1 (centres undefined)
Completion: f

Prompt: For this compound, state the assay outcome: Nc1nc(/C(=C/CC(=O)O)C(=O)NC2C(=O)N3C(C(=O)O)=CCSC23)cs1 (centres undefined)
Completion: f

Prompt: For this compound, state the assay outcome: OCCN1CC(O)C(O)C(O)C1CO (centres undefined)
Completion: f

Prompt: For this compound, state the assay outcome: "CO[C@H]1C[C@@H]2CC[C@@H](C)[C@@](O)(O2)C(=O)C(=O)N2CCCC[C@H]2C(=O)O[C@H]([C@H](C)C[C@@H]2CC[C@@H](O)[C@H](OC)C2)CC(=O)[C@H](C)/C=C(\C)[C@@H](O)[C@@H](OC)C(=O)[C@H](C)C[C@H](C)/C=C/C=C/C=C/1C"
Completion: t

Prompt: For this compound, state the assay outcome: CCC1OC(=O)C[C@@H](O)[C@H](C)[C@@H](OC2OC(C)CC(N(C)C)C2O)[C@@H](CC=O)C[C@@H](C)C(=O)/C=C/[C@]2(C)OC2C1C (some centres undefined)
Completion: f

Prompt: For this compound, state the assay outcome: CC1CCC(C(C)C)C(O)C1 (centres undefined)
Completion: f

Prompt: For this compound, state the assay outcome: CCCCN1CC(O)C(O)C(O)C1CO (centres undefined)
Completion: f

Prompt: For this compound, state the assay outcome: "CC(C)(C)NC[C@H](O)CSc1nc(-c2ccc(C(N)=O)s2)cs1"
Completion: f

Prompt: For this compound, state the assay outcome: "CCN(CC)C(=O)Nc1ccc(OC[C@H](O)CNC(C)(C)C)c(C(C)=O)c1"
Completion: f

Prompt: For this compound, state the assay outcome: Cc1cc2nc3c(=O)[nH]c(=O)nc-3n(CC(O)C(O)C(O)COP(=O)(O)O)c2cc1C (centres undefined)
Completion: f

Prompt: For this compound, state the assay outcome: CC(=O)N1CC(O)CC1C(=O)O (centres undefined)
Completion: f

Prompt: For this compound, state the assay outcome: C=CCn1c(=O)n(C2OC(CO)C(O)C2O)c2nc(N)[nH]c(=O)c21 (centres undefined)
Completion: f

Prompt: For this compound, state the assay outcome: CC(=O)OC1C([N+]2(C)CCCCC2)C[C@H]2C3CC[C@H]4C[C@H](OC(C)=O)C([N+]5(C)CCCCC5)CC4(C)C3CCC12C (some centres undefined)
Completion: f

Prompt: For this compound, state the assay outcome: CC(=O)NC1[C@H](O)C[C@@](O)(C(=O)O)O[C@H]1[C@H](O)[C@H](O)CO (some centres undefined)
Completion: f

###

- Tested on: CP286
- experimental.protocol: qHTS profiling for inhibitors of Plasmodium falciparum proliferation (AID 504749); also: nearly all actives have a fitted effect of over 60% in size; also: potency is read from the fitted curve at half-maximal effect
- run.parameters: P. falciparum in erythrocytes, SYBR Green DNA, 72 h; series mostly up to 28.7 µM
Results filed as inconclusive are left out. Activity calls are given as the source filed them. Calls come from the whole dose curve; as a rule, active = well fitted inhibition curve with a large enough effect; inconclusive = small, poorly fitted or top-dose-only effect; inactive = flat fitted curve, though single readings scatter.
quantity.name: Potency

CC[C@H]1OC(=O)[C@H](C)C(=O)[C@H](C)[C@@H](OC2O[C@H](C)C[C@H](N(C)C)[C@@H]2O)[C@@](C)(OC)C[C@@H](C)C(=O)[C@@H](C)C2N(CCCCn3cnc(-c4cccnc4)c3)C(=O)O[C@@]21C (some centres undefined)
inactive
CCCCC(=O)OC1CCC2C3CCc4cc(O)ccc4C3CC[C@]12C (some centres undefined)
inactive
CNC1C(O)C(OC2C(N)CC(N)C(OC3OC(CN)=CCC3N)C2O)OCC1(C)O (centres undefined)
inactive
CC[C@@]1(O)CC2CN(CCc3c([nH]c4ccccc34)[C@](C(=O)OC)(c3cc4c(cc3OC)N(C)C3[C@@](O)(C(=O)OC)C(OC(C)=O)[C@]5(CC)C=CCN6CC[C@@]43C65)C2)C1 (some centres undefined)
794 nM (active)

###

- System: CP269
- experimental.protocol: qHTS profiling for inhibitors of Plasmodium falciparum proliferation (AID 504749); also: nearly all actives have a fitted effect of over 60% in size; also: potency is read from the fitted curve at half-maximal effect
- run.parameters: P. falciparum in erythrocytes, SYBR Green DNA, 72 h; series mostly up to 28.7 µM
- Description: NIH National Institute of Allergy and Infectious Diseases [NIAID] NIH Chemical Genomics Center [NCGC] […] Because mature erythrocytes lack DNA, only Plasmodium-derived DNA is detected. NCGC Assay Protocol Summary: The SYBR Green viability assay was adapted from a method described previously (Plouffe et al., 2008). […] The following morning, fluorescence intensity at 485(14) nm excitation and 535(25) nm emission wavelengths was measured on an EnVision (Perkin Elmer) plate reader. […]
Results filed as inconclusive are left out. The source made the active and inactive calls. The call rests on the fitted dose curve; in most records, active means well fitted inhibition curve with a large enough effect; inconclusive means small, poorly fitted or top-dose-only effect; inactive means flat fitted curve, though single readings scatter.
quantity.name: Potency

Answered cases to consult:
OCCN1CC(O)C(O)C(O)C1CO (centres undefined)
inactive
O=C1Oc2ccccc2C(=O)C1C(CC(O)c1ccc(-c2ccc(Br)cc2)cc1)c1ccccc1 (centres undefined)
inactive
CC1(Cn2ccnn2)[C@H](C(=O)O)N2C(=O)C[C@H]2S1(=O)=O (some centres undefined)
inactive
C[C@@H]1CC2C3CCC4=CC(=O)C=C[C@]4(C)[C@@]3(F)[C@@H](O)C[C@]2(C)[C@@]1(O)C(=O)COC(=O)c1cccc(S(=O)(=O)O)c1 (some centres undefined)
inactive
CN(C)CC[C@@](O)(c1ccccc1)c1ccccc1Cl
12000 nM (active)
Cc1cnc(C(=O)O)cn1
inactive

Prompt: Identify the reported Potency for the following entry. CCCCC(=O)OC1CCC2C3CCc4cc(O)ccc4C3CC[C@]12C (some centres undefined)
Completion: inactive

###

- System: 7G8
- experimental.protocol: qHTS profiling for inhibitors of Plasmodium falciparum proliferation (AID 504749); also: nearly all actives have a fitted effect of over 60% in size
- run.parameters: P. falciparum in erythrocytes, SYBR Green DNA, 72 h; series mostly up to 28.7 µM
Records with an inconclusive call do not appear. The source made the active and inactive calls. Calls follow the shape of the dose curve; as a rule, active = well fitted inhibition curve with a large enough effect; inconclusive = small, poorly fitted or top-dose-only effect; inactive = flat fitted curve, though single readings scatter.
Outcome (select one): 1.0 for active, 0.0 for inactive

Prompt: For this compound, state the assay outcome: "O=C(O)c1ccc(N[C@@H]2OC[C@@H](O)[C@@H](O)[C@@H]2O)cc1"
Completion: 0.0

Prompt: For this compound, state the assay outcome: CCCCC(=O)O[C@]1(C(=O)CO)CCC2C3CCC4=CC(=O)CCC4(C)C3C(O)CC21C (some centres undefined)
Completion: 1.0

Prompt: For this compound, state the assay outcome: CC[C@H]1OC(=O)[C@H](C)C(=O)[C@H](C)[C@@H](OC2O[C@H](C)C[C@H](N(C)C)[C@@H]2O)[C@@](C)(OC)C[C@@H](C)C(=O)[C@@H](C)C2N(CCCCn3cnc(-c4cccnc4)c3)C(=O)O[C@@]21C (some centres undefined)
Completion: 1.0

Prompt: For this compound, state the assay outcome: "O=C1[C@@H]2C[C@@H]3C[C@H]1C[C@@](O)(C3)C2"
Completion: 0.0

Prompt: For this compound, state the assay outcome: NCCCCC(N)C(=O)O (centres undefined)
Completion: 0.0

Prompt: For this compound, state the assay outcome: "CO[C@H]1/C=C/O[C@@]2(C)Oc3c(C)c(O)c4c(O)c(c5c(c4c3C2=O)NC2(CCN(CC(C)C)CC2)N=5)=NC(=O)/C(C)=C\C=C\[C@H](C)[C@H](O)[C@@H](C)[C@@H](O)[C@@H](C)[C@H](OC(C)=O)[C@@H]1C"
Completion: 1.0

Prompt: For this compound, state the assay outcome: "C[C@@H]1CCN(C(=O)[C@H](CCCNC(=N)N)NS(=O)(=O)c2cccc3c2NC[C@H](C)C3)[C@@H](C(=O)O)C1"
Completion: 0.0

Prompt: For this compound, state the assay outcome: CC(=O)OCC(=O)[C@@]1(O)CCC2C3C[C@H](C)C4=CC(=O)C=CC4(C)C3C(O)CC21C (some centres undefined)
Completion: 0.0

Prompt: For this compound, state the assay outcome: "Clc1ccc(CS[C@@H](Cn2ccnc2)c2ccc(Cl)cc2Cl)cc1"
Completion: 1.0

Prompt: For this compound, state the assay outcome: C=C1C(n2cnc3c(=O)[nH]c(N)nc32)C[C@H](O)[C@H]1CO (some centres undefined)
Completion: 1.0

Prompt: For this compound, state the assay outcome: C=CC1CN2CCC1CC2[C@@H](O)c1ccnc2ccc(OC)cc12 (some centres undefined)
Completion: 1.0

Prompt: For this compound, state the assay outcome: OCC1O[C@H](Oc2ccc(O)cc2)C(O)C(O)C1O (some centres undefined)
Completion: 0.0

Prompt: For this compound, state the assay outcome: "CO/N=C(/C(=O)N[C@@H]1C(=O)N2C(C(=O)O)=C(CSc3nnnn3C)CS[C@H]12)c1csc(N)n1"
Completion: 0.0

Prompt: For this compound, state the assay outcome: O=c1ccn(C2OC(COP(=O)(O)OC3C(CO)OC(n4ccc(=O)[nH]c4=O)C3O)C(O)C2O)c(=O)[nH]1 (centres undefined)
Completion: 0.0

Prompt: For this compound, state the assay outcome: "Cc1ccccc1N1C(=O)c2cc(N)ccc2N/C1=C\F"
Completion: 0.0

Prompt: For this compound, state the assay outcome: CC(=O)C1(O)Cc2c(O)c3c(c(O)c2C(OC2CC(N)C(O)C(C)O2)C1)C(=O)c1c(O)cccc1C3=O (centres undefined)
Completion: 1.0

Prompt: For this compound, state the assay outcome: "C=C1NC(=O)c2cc(CN(C)c3ccc(C(=O)N[C@@H](CCC(=O)O)C(=O)O)s3)ccc2N1"
Completion: 0.0

Prompt: For this compound, state the assay outcome: "CC(=O)NC[C@@H]1CN(c2ccc(N3CCOCC3)c(F)c2)C(=O)O1"
Completion: 0.0

Prompt: For this compound, state the assay outcome: "Cc1ccc(Nc2ncccc2C(=O)O)cc1C"
Completion: 0.0
